# study_target: 17-beta-hydroxysteroid dehydrogenase type 1 (Homo sapiens)
# test_summary: Inhibition of human recombinant 17-beta-HSD1 expressed in human HeLa cells using estrone as substrate preincubated for 30 mins prior substrate addition measured after 120 mins by spectrophotometry
# Type: cell-based
Calls of active or inactive are those of the source. No rule for the calls is given here.
property: inhibition

Please review the following examples before continuing.
{"compound": "O=C1/C(=C/c2ccc(O)c(Br)c2)OC(=S)N1c1ccc2c(c1)OCO2", "inhibition": "inactive"}
{"compound": "O=C1O/C(=C\\c2ccc(O)c(Br)c2)C(=O)N1c1ccc(F)nc1", "inhibition": "inactive"}
{"compound": "CN(C)C(=O)c1ccc(N2C(=O)O/C(=C\\c3ccc(O)c(Br)c3)C2=O)cc1", "inhibition": "inactive"}
{"compound": "COc1ccccc1N1C(=O)/C(=C/c2ccc(O)c(Br)c2)OC1=S", "inhibition": "inactive"}
{"compound": "O=C1/C(=C/c2ccc(O)c(Br)c2)OC(=S)N1c1ccccc1", "inhibition": "inactive"}
{"compound": "C=CCN1C(=O)/C(=C/c2ccc(O)c(Br)c2)SC1=S", "inhibition": "inactive"}
{"compound": "COc1ccc(N2C(=O)/C(=C/c3ccc(O)c(Br)c3)SC2=S)cc1", "inhibition": "inactive"}
{"compound": "COc1ccc(N2C(=O)/C(=C/c3cc(F)c(O)c(F)c3)OC2=S)cc1", "inhibition": "inactive"}

// for each compound in input: emit inhibition
1. O=C1/C(=C/c2ccc(O)c(Br)c2)SC(=S)N1C1CCOCC1
2. O=C1/C(=C/c2ccc(O)c(Br)c2)OC(=S)N1c1ccc(Cl)cc1
3. COc1ccc(N2C(=O)C(Cc3ccc(O)c(Br)c3)SC2=S)cc1 (stereo unspecified)

Outgoing:
inactive
inactive
inactive
